tested system: Dickkopf-related protein 1 (Homo sapiens)
protocol: DKK1 binders on small-molecule microarrays, primary screen, biochemical, small-molecule microarray, 635 nm fluorescence scan (AID 1106);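 note: score merges emission near 667 nm with signal to noise over three replicate slides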
assay context: DKK1 binding, higher = more signal
Label scheme for composite z-score: lower than -0.1 is 0, -0.1 and above is 1.

Reported composite z-score at or above -0.1? COc1ccc([Si](C)(C)[C@@H]2[C@@H](CC(=O)N3Cc4ccccc4C[C@H]3CO)O[C@]3(C(=O)N(c4ccccc4)c4ccccc43)[C@H]2C)cc1 1

Reported composite z-score at or above -0.1? COCCCNC(=O)[C@@]1(c2ccc([N+](=O)[O-])cc2)CC(=O)N(C(C)C)[C@@H]1c1ccc(CO)cc1 1

Reported composite z-score at or above -0.1? CCOC(=O)C1=C[C@@H](C(C)(C)C)N(S(=O)(=O)c2ccc(C)cc2)[C@H]1c1ccccc1 1

Reported composite z-score at or above -0.1? COC(=O)[C@@]1(Cc2ccccc2CN=[N+]=[N-])N=C(c2ccc(OCCCO)cc2)O[C@H]1c1ccccc1 0

Reported composite z-score at or above -0.1? COCC(=C=CC[C@@H](O)c1cccc(OCCO)c1)CCO 0

Reported composite z-score at or above -0.1? C=C(CCCC)C(=O)CC[C@H](OC(=O)c1ccccc1-c1ccccc1C(=O)O)c1ccccc1OCCO 1

Reported composite z-score at or above -0.1? COc1cc(NN2C(C(O)c3ccc(I)cc3)C=CC3C(=O)N(c4ccccc4)C(=O)C32)cc(OC)c1OC (stereo not given) 0

Reported composite z-score at or above -0.1? COCCOC(=O)N1C(=O)[C@@]2(c3cc(C#CC4(O)CCCCCC4)ccc31)[C@H](c1ccc(OCCO)cc1)N1[C@H](c3ccccc3)[C@H](c3ccccc3)OC(=O)[C@H]1[C@@H]2C(=O)Nc1nc2ccccc2s1 1

Reported composite z-score at or above -0.1? C=C(/C(=C/C[C@H](OC(=O)c1ccncc1)c1ccccc1OCCO)c1cnc2ccccc2c1)C(C)C 1

Reported composite z-score at or above -0.1? O=C(O)[C@H]1C[C@H]2C(=O)N[C@@H](Cc3ccccc3)C(=O)N2[C@H]1c1cccc(OCCO)c1 1

Reported composite z-score at or above -0.1? COC(=O)C1=CC(CCCO)=CC(C)N(Cc2cccc(OC(F)(F)F)c2)C=C1C(=O)OC (stereo not given) 0

Reported composite z-score at or above -0.1? O=C1C2C=CC(C(O)C=Cc3ccc([N+](=O)[O-])cc3)N(Nc3ccccc3)C2C(=O)N1c1ccccc1 (stereo not given) 1

Reported composite z-score at or above -0.1? Cc1ccc(N2C(=O)c3ccccc3[C@](C)(C(=O)NCc3ccccc3)[C@@H]2c2ccc(CO)cc2)nc1 1

Reported composite z-score at or above -0.1? Cc1ccc([C@H]2C(C(=O)O)=C[C@@H](C(C)(C)C)N2S(=O)(=O)c2ccc(C)cc2)cc1 0

Reported composite z-score at or above -0.1? COC(=O)[C@@]1(Cc2ccccc2CN=[N+]=[N-])N=C(c2ccc(OCCCO)cc2)O[C@H]1c1ccccc1CN=[N+]=[N-] 0

Reported composite z-score at or above -0.1? C=CCC(OC(C)=O)[C@@H]1[C@@H](N(Cc2ccc(-c3cccc(C(F)(F)F)c3)o2)C(=O)Cc2ccc(OC)cc2)c2cc(OCCCO)ccc2N1C(=O)Cc1ccc2ccccc2c1 (stereo not given in full) 0

Reported composite z-score at or above -0.1? C=C(C)C1CCC(C(O)C2C=CC3C(=O)N(C)C(=O)C3N2Nc2cc(OC)c(OC)c(OC)c2)CC1 (stereo not given) 1

Reported composite z-score at or above -0.1? CC(C)CCC[C@@H](C)[C@H]1CC[C@@]2(C)C3=C(CC[C@]12C)[C@@]1(C)CC[C@H](OC(=O)c2ccccc2)C(C)(C)C1CC3 (stereo not given in full) 1

Reported composite z-score at or above -0.1? C=C(COC)C(=O)CC[C@H](OC(=O)c1cccnc1)c1ccc(CO)o1 1

Reported composite z-score at or above -0.1? CN1C(=O)C2C=CC(C(O)c3ccc(F)cc3)N(NC(=O)OC(C)(C)C)C2C1=O (stereo not given) 0

Reported composite z-score at or above -0.1? COCCOC(=O)N1C(=O)[C@@]2(c3cc(C#CC4=CCCCC4)ccc31)[C@H](C(=O)N1CCCCCCC1)[C@H]1C(=O)O[C@H](c3ccccc3)[C@H](c3ccccc3)N1[C@@H]2c1ccc(OCCO)cc1 1

Reported composite z-score at or above -0.1? CC(C)=CCCC(C)=CC(O)C1C=CC2C(=O)N(c3ccccc3)C(=O)C2N1Nc1ccccc1F (stereo not given) 1

Reported composite z-score at or above -0.1? CCOC(=O)C1=CCN(S(=O)(=O)c2ccc(C)cc2)C1c1ccccc1 (stereo not given) 1

Reported composite z-score at or above -0.1? CCCCCCCCCCC(O)C1C=CC2C(=O)N(c3ccccc3)C(=O)C2N1Nc1ccccc1F (stereo not given) 0

Reported composite z-score at or above -0.1? CCCC=C(CCC)[C@@H](NC(=O)CCc1ccccc1)c1ccc(C(F)(F)F)cc1 0

Reported composite z-score at or above -0.1? CN1C(=O)C2C=CC(C(O)c3cc(C(F)(F)F)cc(C(F)(F)F)c3)N(Nc3ccccc3)C2C1=O (stereo not given) 0

Reported composite z-score at or above -0.1? [N-]=[N+]=Nc1ccccc1C[C@]1(C(=O)NCc2ccccc2)COC(c2ccc(OCCCO)cc2)=N1 0

Reported composite z-score at or above -0.1? COC(=O)[C@@]1(Cc2ccccc2)[C@H]2c3cc(C(=O)N(C)C)n(CCn4cc([N+](=O)[O-])nc4C)c3C[C@H]2CN1C(=O)c1ccccc1 1

Reported composite z-score at or above -0.1? C=CCNC(=O)[C@H]1[C@@H]2C(=O)O[C@@H](c3ccccc3)[C@@H](c3ccccc3)N2[C@@H](c2ccc(OCCO)cc2)[C@]12C(=O)N(C(=O)OCCOC)c1ccc(C#Cc3ccc(OC)cc3)cc12 1

Reported composite z-score at or above -0.1? COc1cc(C(O)C2C=CC3C(=O)N(Cc4ccccc4)C(=O)C3N2n2cnnc2)cc(OC)c1OC (stereo not given) 1

---

System: Wnt5a (protein binding on small-molecule microarray)
protocol: Wnt5a binders on small-molecule microarray, primary screen, biophysical, 635/667 nm fluorescence (AID 1142);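 note: fluorescence read at 667 nm with signal to noise per printed feature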
assay context: 635 nm fluorescence, higher = more signal
test readout: composite z-score
Simply state the number, no unit and no words.

Provide the reported composite z-score (system: Wnt5a (protein binding on small-molecule microarray)) for Cc1ccc(S[C@]2(C(=O)NCC(C)C)CC(=O)N(C3Cc4ccccc4C3)[C@@H]2c2ccc(CO)cc2I)cc1 -0.305

Provide the reported composite z-score (system: Wnt5a (protein binding on small-molecule microarray)) for COCCOC(=O)N1C(=O)[C@@]2(c3cc(C#CCCO)ccc31)[C@H](C(N)=O)[C@H]1C(=O)O[C@H](c3ccccc3)[C@H](c3ccccc3)N1[C@@H]2c1ccc(OCCO)cc1 0.622

Provide the reported composite z-score (system: Wnt5a (protein binding on small-molecule microarray)) for C=CCN1C(=O)[C@@]2(O[C@@H](CCO)[C@H]([Si](C)(C)c3ccc(OC)cc3)[C@H]2C)c2cc(N3CCOC3=O)ccc21 -0.0317

Provide the reported composite z-score (system: Wnt5a (protein binding on small-molecule microarray)) for CCCNC(=O)[C@@]1(Sc2ccc(C)cc2)CC(=O)N(C2CCCCC2)[C@@H]1c1ccc(CO)cc1I 0.108

Provide the reported composite z-score (system: Wnt5a (protein binding on small-molecule microarray)) for CC(C)(C)OC(=O)CC[C@]12N=C(c3ccc(OCCCO)cc3)O[C@H]1c1ccccc1N(Cc1ccccc1)C2=O 0.154

Provide the reported composite z-score (system: Wnt5a (protein binding on small-molecule microarray)) for CCOC(=O)C1=CC[C@@H](c2ccccc2)N(S(=O)(=O)c2ccc(C)cc2)[C@H]1C=Cc1ccccc1 -0.109

Provide the reported composite z-score (system: Wnt5a (protein binding on small-molecule microarray)) for CC(C)c1ccc(NN2C(C(O)Cc3ccccc3)C=CC3C(=O)N(c4ccccc4)C(=O)C32)cc1 (stereo not drawn) 0.204

Provide the reported composite z-score (system: Wnt5a (protein binding on small-molecule microarray)) for COCCOC(=O)N1C(=O)[C@@]2(c3cc(C#CCNC(N)=O)ccc31)[C@H](c1ccc(OCCO)cc1)N1[C@H](c3ccccc3)[C@H](c3ccccc3)OC(=O)[C@H]1[C@@H]2C(N)=O 0.428

---

Task for the reader: assign each of the following compounds its reported z-score.
protocol: basal RPMI8226 mitochondrial membrane potential changes, profiling panel, cell-based, JC-1 fluorescence, 24 h, 100 nL compound (AID 1169); note: test concentration not given here
assay context: RPMI8226 myeloma, JC-1 mitochondrial potential fluorescence, higher = more signal
Simply state the number, no unit and no words.

Give z-score for the following compound: [N-]=[N+]=NCc1ccccc1[C@@H]1OC(c2ccc(OCCCO)cc2)=N[C@]1(Cc1ccccc1)C(=O)NCCN1CCOCC1 -0.191

Give z-score for the following compound: COCCOC(=O)N1C(=O)[C@@]2(c3cc(C#CCNC(N)=O)ccc31)[C@H](c1ccc(O)cc1)N1[C@H](c3ccccc3)[C@H](c3ccccc3)OC(=O)[C@H]1[C@@H]2C(=O)N1CCN(c2ncccn2)CC1 -0.322

Give z-score for the following compound: COc1cc(CO)cc(I)c1O[C@H]1C=C(C(=O)NCCO)C[C@@H](NCC2CCCCC2)[C@@H]1O -0.561

Give z-score for the following compound: C=C(COC)C(=O)CC[C@H](OC(C)=O)c1ccc(OCCO)cc1 -0.0964

Give z-score for the following compound: CCCC=C(CCC)[C@@H](NC(=O)CCc1ccccc1)c1ccc(C(F)(F)F)cc1 -0.0403

Give z-score for the following compound: Cc1ccccc1C(O)C1C=CC2C(=O)N(c3ccccc3)C(=O)C2N1Nc1ccc([N+](=O)[O-])cc1 (stereo unspecified) -0.247

Give z-score for the following compound: CCCNC(=O)[C@@]1(Sc2ccc(C)cc2)CC(=O)N(C2CCCCC2)[C@@H]1c1ccc(CO)cc1I -0.503

Give z-score for the following compound: CCCCCCCCCCC(O)C1C=CC2C(=O)N(C)C(=O)C2N1Nc1cc(OC)c(OC)c(OC)c1 (stereo unspecified) -0.913

Give z-score for the following compound: CCc1cccc(NC(=O)O[C@H]2[C@H](OC(=O)Nc3ccccc3)[C@H](OC(=O)Nc3ccccc3)[C@@H](OC)O[C@@H]2CO)c1 -1.2

Give z-score for the following compound: O=C1O[C@H](c2ccccc2)[C@H](c2ccccc2)N2[C@H]1[C@@H](C(=O)Nc1nc3ccccc3s1)[C@]1(C(=O)Nc3ccc(C#CC4=CCCCC4)cc31)[C@H]2c1ccc(O)cc1 -0.886

Give z-score for the following compound: CN1C=C(C(=O)OCCS(C)(=O)=O)C(C(=O)OCCS(C)(=O)=O)=CC(c2ccc(CO)cc2)=CC1c1cccs1 (stereo unspecified) -0.627

Give z-score for the following compound: C=C[C@@H](C)[C@H](O)c1ccc(OCCO)cc1 0.948

Give z-score for the following compound: CN(C)C(=O)[C@@]1(Cc2ccccc2)COC(c2ccc(OCCCO)cc2)=N1 0.0953

Give z-score for the following compound: COCC1=C2[C@@H](CCc3ccccc3)OB(O)C[C@@H]2[C@@H]2C(=O)N(C)C(=O)[C@@H]2C1 -0.0658

Give z-score for the following compound: C=CCN1C(=O)[C@]2(O[C@H](CCO)[C@@H]([Si](C)(C)c3ccc(OC)cc3)[C@@H]2C)c2cc(N3C(=O)COc4ccccc43)ccc21 -1.06

Give z-score for the following compound: C=CCC(OC(C)=O)[C@@H]1[C@@H](N(Cc2ccc(-c3cccc(C(F)(F)F)c3)o2)C(=O)c2cccc3ccccc23)c2cc(OCCCO)ccc2N1C(=O)Cc1ccc(OC)cc1 (stereo partly specified) -0.748
